test_target: Human MET (residues 956-1390) (Homo sapiens (Human), UniProt P08581)
Sequence (P08581 956-1390): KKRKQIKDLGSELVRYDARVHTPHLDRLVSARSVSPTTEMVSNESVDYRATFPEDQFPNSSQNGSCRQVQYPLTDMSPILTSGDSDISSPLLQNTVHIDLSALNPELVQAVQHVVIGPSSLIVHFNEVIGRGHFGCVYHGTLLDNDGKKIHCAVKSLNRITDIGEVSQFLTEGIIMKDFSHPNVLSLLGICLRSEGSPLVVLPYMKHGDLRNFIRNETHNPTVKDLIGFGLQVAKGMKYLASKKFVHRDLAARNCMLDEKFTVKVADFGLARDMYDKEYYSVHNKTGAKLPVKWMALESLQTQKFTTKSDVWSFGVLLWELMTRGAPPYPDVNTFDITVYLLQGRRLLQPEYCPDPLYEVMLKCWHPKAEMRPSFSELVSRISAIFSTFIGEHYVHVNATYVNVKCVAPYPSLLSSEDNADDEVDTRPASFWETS
assay_name: Human Met kinase assay, HTRF KinEase (Example D-2)
Type: biochemical
study_conditions: protocol of Example D-2; read-out: c-Met IC50
pIC50: −log10 of the molar value.
measured_quantity: pIC50

Some solved entries appear below for comparison.
C=C(C)c1cnc2c(Oc3ccc(NC(=O)c4c(C)nc(C)c(-c5ccc(F)cc5)c4O)cc3F)ccnc2c1 > 7.00
C=C(C)c1cnc2c(Oc3ccc(NC(=O)c4c(C)cc(C)n(-c5ccc(F)cc5)c4=O)cc3F)ccnc2c1 > 7.00
COc1cc2nccc(Oc3ccc(NC(=O)c4cn(C(C)C)c(C)c(-c5ccc(F)cc5)c4=O)cc3F)c2nc1O > 7.00
COc1cc2nccc(Oc3ccc(NC(=O)c4cnc(SC(C)C)n(-c5ccc(F)cc5)c4=O)cc3)c2cc1OC 6.52 to 7.00
COc1nc2c(Oc3ccc(NC(=O)c4cnc(C)c(-c5ccc(F)cc5C)c4O)cc3F)ccnc2cc1C 6.52 to 7.00
COc1nc2c(Oc3ccc(NC(=O)c4cnc(C)c(-c5ccc(F)cc5)c4O)cc3F)ccnc2cc1C 6.52 to 7.00

Proceed to the following item.
Query: I'd like to know its pIC50. The compound in question is "COc1cc2ncnc(Oc3ccc(NC(=O)c4cn(-c5cnn(C)c5)cc(-c5ccc(F)cc5)c4=O)cc3F)c2nc1OC"
Response: > 7.00
